# study_system: PSD-95 PDZ3cα protein (residues R309-S422) (UniProt P78352 309-422)
# Sequence (P78352 309-422): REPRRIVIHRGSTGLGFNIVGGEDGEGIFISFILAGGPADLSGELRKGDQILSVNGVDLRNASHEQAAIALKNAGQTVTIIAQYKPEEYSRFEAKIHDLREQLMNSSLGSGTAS
# assay_info: SPR
Bridges are numbered along the chain shown (N, C = ends). Where no end group is shown, it is not given here. [ ]: non-standard residue; d: D form. Trp(5-OH) = N[C@@H](Cc1c[nH]c2ccc(O)cc12)C(=O)O
assay_readout: kon (M⁻¹ s⁻¹)

Reference set (4 entries):
CGSFPPWVKKTEV (bridge 10-12; not fully specified (residue 10, bridges)) [Syn3* (peptide 4), active component peptide of Syn3 without the poly-arginine moiety]: 439000
RRRRRRGSFPP[Trp(5-OH)]VQQTRV [W7-OHW (peptide 13), SYNGAP peptide with 5-hydroxy-Trp in place of Trp7]: 24000
RRRRRRGSFPPW[dV]QQTRV [D-Val8 (peptide 17), SYNGAP peptide with d-Val]: 2.19e+06
RRRRRRGSF[dP]PWVQQTRV [D-Pro4 (peptide 15), SYNGAP peptide with d-Pro at the first proline]: 1.88e+06

[a] RRRRRRG[dS]FPPWVQQTRV [D-Ser3 (peptide 14), SYNGAP peptide with d-Ser]
[b] RRRRRRGSFP[dP]WVQQTRV [D-Pro5 (peptide 16), SYNGAP peptide with d-Pro at the second proline]
Please compare: a and b . Report which one has the smaller kon value. Write the label of whichever entry you select.
a
